MEASURED ON: P2X purinoceptor 2 (Homo sapiens)
Sequence (Q9UBL9 whole entry): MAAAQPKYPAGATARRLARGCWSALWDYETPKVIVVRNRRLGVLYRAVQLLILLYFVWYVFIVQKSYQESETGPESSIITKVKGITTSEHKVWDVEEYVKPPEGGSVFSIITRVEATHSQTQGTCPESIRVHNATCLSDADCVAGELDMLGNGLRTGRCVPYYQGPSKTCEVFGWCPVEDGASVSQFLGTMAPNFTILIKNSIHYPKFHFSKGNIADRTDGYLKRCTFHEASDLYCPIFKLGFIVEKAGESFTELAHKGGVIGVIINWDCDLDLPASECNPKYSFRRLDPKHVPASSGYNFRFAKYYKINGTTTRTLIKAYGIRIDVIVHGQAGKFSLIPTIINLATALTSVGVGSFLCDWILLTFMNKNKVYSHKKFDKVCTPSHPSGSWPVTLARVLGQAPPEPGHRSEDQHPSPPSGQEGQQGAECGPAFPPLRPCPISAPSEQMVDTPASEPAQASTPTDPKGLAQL
PROTOCOL TEXT: Antagonist activity at P2X2 receptor (unknown origin)

{"columns": ["MOLECULE", "IC50"],
 "data": [
  ["C[C@@H](Cn1c(=O)[nH]/c(=N\\c2ccc(Oc3ccccn3)cc2)n(Cc2ccc(Cl)cc2)c1=O)C(=O)O", "> 30 µM"],
  ["C[C@@H](Cn1c(=O)[nH]/c(=N\\c2ccc(Oc3ccnc(F)c3)cc2)n(Cc2ccc(Cl)cc2)c1=O)C(=O)O", "> 30 µM"],
  ["C[C@@H](Cn1c(=O)[nH]/c(=N\\c2ccc(Oc3ccsn3)cc2)n(Cc2ccc(Cl)cc2)c1=O)C(=O)O", "> 30 µM"]
]}

====

MEASURED ON: Cytochrome P450 3A4 (Homo sapiens)
Sequence (P08684 whole entry): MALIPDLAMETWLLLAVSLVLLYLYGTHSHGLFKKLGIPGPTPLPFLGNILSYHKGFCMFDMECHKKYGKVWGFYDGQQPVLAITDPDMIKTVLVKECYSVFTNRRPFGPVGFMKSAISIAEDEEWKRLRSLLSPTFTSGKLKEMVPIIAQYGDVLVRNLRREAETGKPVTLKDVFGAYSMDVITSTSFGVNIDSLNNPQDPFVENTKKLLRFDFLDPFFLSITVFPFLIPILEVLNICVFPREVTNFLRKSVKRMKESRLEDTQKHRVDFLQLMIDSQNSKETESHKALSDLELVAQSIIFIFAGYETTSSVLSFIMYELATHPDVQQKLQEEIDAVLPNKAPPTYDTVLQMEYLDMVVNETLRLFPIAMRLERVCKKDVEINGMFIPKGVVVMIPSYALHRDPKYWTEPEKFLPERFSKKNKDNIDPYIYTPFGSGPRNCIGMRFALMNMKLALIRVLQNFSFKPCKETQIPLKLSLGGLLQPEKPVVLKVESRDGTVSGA
PROTOCOL TEXT: Inhibition of CYP3A4 (unknown origin)
Format: ADME
pIC50: −log10 of the molar value.
Catalogue of pIC50 values

{"columns": ["MOLECULE", "pIC50"],
 "data": [
  ["C[C@@H](Cn1c(=O)[nH]/c(=N\\c2ccc(Oc3ccsn3)cc2)n(Cc2ccc(Cl)cc2)c1=O)C(=O)O", "< 4.70"],
  ["C[C@@H](Cn1c(=O)[nH]/c(=N\\c2ccc(Oc3ccnc(F)c3)cc2)n(Cc2ccc(Cl)cc2)c1=O)C(=O)O", "< 4.70"],
  ["C[C@@H](Cn1c(=O)[nH]/c(=N\\c2ccc(Oc3ccccn3)cc2)n(Cc2ccc(Cl)cc2)c1=O)C(=O)O", "< 4.70"]
]}

====

MEASURED ON: Cytochrome P450 2C19 (Homo sapiens, UniProt P33261)
Sequence (P33261 whole entry): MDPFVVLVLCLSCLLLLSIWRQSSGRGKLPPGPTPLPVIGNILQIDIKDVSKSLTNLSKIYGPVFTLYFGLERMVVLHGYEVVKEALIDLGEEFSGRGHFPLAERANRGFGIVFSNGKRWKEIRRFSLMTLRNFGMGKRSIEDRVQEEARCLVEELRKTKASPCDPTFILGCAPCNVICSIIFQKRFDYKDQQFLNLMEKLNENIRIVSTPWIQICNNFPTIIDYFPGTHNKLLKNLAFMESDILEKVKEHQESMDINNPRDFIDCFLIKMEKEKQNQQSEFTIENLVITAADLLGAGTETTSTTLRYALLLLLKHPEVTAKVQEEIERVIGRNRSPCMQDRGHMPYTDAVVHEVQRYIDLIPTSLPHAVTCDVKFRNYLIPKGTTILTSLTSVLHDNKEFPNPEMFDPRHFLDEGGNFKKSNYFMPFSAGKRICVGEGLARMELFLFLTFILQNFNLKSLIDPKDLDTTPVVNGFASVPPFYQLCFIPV

{"columns": ["MOLECULE", "IC50"],
 "data": [
  ["C[C@@H](Cn1c(=O)[nH]/c(=N\\c2ccc(Oc3ccccn3)cc2)n(Cc2ccc(Cl)cc2)c1=O)C(=O)O", "> 20 µM"]
]}

====

PROTOCOL TEXT: Ratio of free plasma concentration in rat measured after 3 hrs to IC50 of P2X3 (unknown origin)
Format: ADME

{"columns": ["MOLECULE", "Ratio"],
 "data": [
  ["Cc1cc(/N=c2\\[nH]c(=O)n(C[C@H](C)C(=O)O)c(=O)n2Cc2ccc(Cl)cc2)ccc1OC(C)C", 1.16],
  ["CC(C)COc1ccc(/N=c2\\[nH]c(=O)n(C[C@H](C)C(=O)O)c(=O)n2Cc2ccc(Cl)cc2)cc1", 0.29],
  ["Cc1ccc(Cn2c(=O)n(CCCC(=O)O)c(=O)[nH]/c2=N\\c2ccc(OC(C)C)c(Cl)c2)cc1", 0.59],
  ["CC(C)Oc1ccc(Nc2nc(=O)n(CCCO)c(=O)n2Cc2ccc(Cl)cc2)cc1Cl", 0.31],
  ["CC(C)Oc1ccc(/N=c2\\[nH]c(=O)n(C[C@@H](C)C(=O)O)c(=O)n2Cc2ccc(Cl)cc2)cc1Cl", 0.12]
]}

====

PROTOCOL TEXT: Plasma concentration in rat at 1 mg/kg, po measured after 3 hrs
Type: ADME, organism-based
MEASURE NAME: concentration at 3 h (nM)

{"columns": ["MOLECULE", "UNITS SYMBOL", "ENDPOINT RESULT"],
 "data": [
  ["Cc1ccc(Cn2c(Nc3ccc(OC(C)C)c(Cl)c3)nc(=O)n(CCC(=O)O)c2=O)cc1", "nM", 1320]
]}

====

Each item that follows carries a reported Cmax.
PROTOCOL TEXT: Cmax in rat at 3 mg/kg, po
Format: ADME, organism-based
Design: route oral, dose 3 mg/kg
ASSAY CONTEXT: in vivo
MEASURE NAME: Cmax (ng/mL)

{"columns": ["MOLECULE", "ENDPOINT RESULT"],
 "data": [
  ["C[C@@H](Cn1c(=O)[nH]/c(=N\\c2ccc(Oc3ccsn3)cc2)n(Cc2ccc(Cl)cc2)c1=O)C(=O)O", 1610],
  ["C[C@@H](Cn1c(=O)[nH]/c(=N\\c2ccc(Oc3ccccn3)cc2)n(Cc2ccc(Cl)cc2)c1=O)C(=O)O", 1630],
  ["C[C@@H](Cn1c(=O)[nH]/c(=N\\c2ccc(Oc3ccnc(F)c3)cc2)n(Cc2ccc(Cl)cc2)c1=O)C(=O)O", 597]
]}

====

Record type: pIC50 measurement. Applies to: Cytochrome P450 1A2 (Homo sapiens)
pIC50: −log10 of the molar value.

{"columns": ["MOLECULE", "pIC50"],
 "data": [
  ["C[C@@H](Cn1c(=O)[nH]/c(=N\\c2ccc(Oc3ccnc(F)c3)cc2)n(Cc2ccc(Cl)cc2)c1=O)C(=O)O", "< 4.70"],
  ["C[C@@H](Cn1c(=O)[nH]/c(=N\\c2ccc(Oc3ccccn3)cc2)n(Cc2ccc(Cl)cc2)c1=O)C(=O)O", "< 4.70"],
  ["C[C@@H](Cn1c(=O)[nH]/c(=N\\c2ccc(Oc3ccsn3)cc2)n(Cc2ccc(Cl)cc2)c1=O)C(=O)O", "< 4.70"]
]}

====

MEASURED ON: P2X purinoceptor 3 (Homo sapiens)
Sequence (P56373 whole entry): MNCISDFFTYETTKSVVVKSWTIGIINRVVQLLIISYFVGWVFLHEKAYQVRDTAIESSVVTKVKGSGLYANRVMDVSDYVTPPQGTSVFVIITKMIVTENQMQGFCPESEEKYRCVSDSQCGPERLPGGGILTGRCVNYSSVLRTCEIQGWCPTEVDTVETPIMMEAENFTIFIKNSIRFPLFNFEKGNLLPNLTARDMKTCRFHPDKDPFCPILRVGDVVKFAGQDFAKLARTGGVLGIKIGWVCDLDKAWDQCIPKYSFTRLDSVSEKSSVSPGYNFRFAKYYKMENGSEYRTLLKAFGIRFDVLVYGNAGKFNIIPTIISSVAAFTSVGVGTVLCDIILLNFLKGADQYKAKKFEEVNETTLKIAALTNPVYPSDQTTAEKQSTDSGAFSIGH

{"columns": ["MOLECULE", "UNITS SYMBOL", "IC50"],
 "data": [
  ["Cc1ccc(Cn2c(=O)n(CC(C)(C)C(=O)O)c(=O)[nH]/c2=N\\c2ccc(OC(C)C)c(Cl)c2)cc1", "nM", 9.8],
  ["CC(C)Oc1ccc(/N=c2\\[nH]c(=O)n(C[C@H](C)C(=O)O)c(=O)n2Cc2ccc(Cl)cc2)cc1F", "nM", 7.8],
  ["CC(C)Oc1ccc(Nc2nc(=O)n(CC(CO)CO)c(=O)n2Cc2ccc(Cl)cc2)cc1Cl", "nM", 6.7],
  ["C[C@@H](Cn1c(=O)[nH]/c(=N\\c2ccc(Oc3cccnc3)cc2)n(Cc2ccc(Cl)cc2)c1=O)C(=O)O", "nM", 8.6],
  ["CC(C)Oc1ccc(/N=c2\\[nH]c(=O)n(C[C@@H](O)CO)c(=O)n2Cc2ccc(Cl)cc2)cc1Cl", "nM", 5.7],
  ["CC(C)Oc1ccc(/N=c2\\[nH]c(=O)n(C[C@H](O)CO)c(=O)n2Cc2ccc(Cl)cc2)cc1Cl", "nM", 10.4],
  ["C[C@@H](Cn1c(=O)[nH]/c(=N\\c2ccc(Oc3cccnn3)cc2)n(Cc2ccc(Cl)cc2)c1=O)C(=O)O", "nM", 7.7]
]}

====

PROTOCOL TEXT: Ratio of free plasma concentration in rat measured after 3 hrs to IC50 of P2X3 (unknown origin)
Assay type: ADME
The reader will find reported Ratio values listed item by item below.
MEASURE NAME: Ratio

{"columns": ["MOLECULE", "ENDPOINT RESULT"],
 "data": [
  ["CC(C)Oc1ccc(/N=c2\\[nH]c(=O)n(C[C@@H](O)CO)c(=O)n2Cc2ccc(Cl)cc2)cc1Cl", 0.28],
  ["CC(C)Oc1ccc(/N=c2\\[nH]c(=O)n(CCCC(=O)O)c(=O)n2Cc2ccc(Cl)cc2)cc1Cl", 0.24],
  ["Cc1ccc(Cn2c(=O)n(C[C@H](C)C(=O)O)c(=O)[nH]/c2=N\\c2ccc(OC(C)C)c(Cl)c2)cc1", 1.38],
  ["C[C@@H](Cn1c(=O)[nH]/c(=N\\c2ccc(Oc3ccccn3)cc2)n(Cc2ccc(Cl)cc2)c1=O)C(=O)O", 1.57],
  ["C[C@@H](Cn1c(=O)[nH]/c(=N\\c2ccc(OC3CCC3)cc2)n(Cc2ccc(Cl)cc2)c1=O)C(=O)O", 0.46],
  ["C[C@@H](Cn1c(=O)[nH]/c(=N\\c2ccc(Oc3cccnn3)cc2)n(Cc2ccc(Cl)cc2)c1=O)C(=O)O", 0.12],
  ["CC.C[C@@H](Cn1c(=O)[nH]/c(=N\\c2ccc(Oc3cc(F)ccn3)cc2)n(Cc2ccc(Cl)cc2)c1=O)C(=O)O", 0.2],
  ["C[C@@H](Cn1c(=O)[nH]/c(=N\\c2ccc(OCC3CC3)cc2)n(Cc2ccc(Cl)cc2)c1=O)C(=O)O", 0.79],
  ["Cc1ccc(Cn2c(=O)n(CC(C)(C)C(=O)O)c(=O)[nH]/c2=N\\c2ccc(OC(C)C)c(Cl)c2)cc1", 0.14],
  ["CC(C)Oc1ccc(Nc2nc(=O)n(CC(CO)CO)c(=O)n2Cc2ccc(Cl)cc2)cc1Cl", 0.27],
  ["C[C@@H](Cn1c(=O)[nH]/c(=N\\c2ccc(Oc3cnccn3)cc2)n(Cc2ccc(Cl)cc2)c1=O)C(=O)O", 1.02],
  ["CC(C)Oc1ccc(/N=c2\\[nH]c(=O)n(C[C@H](C)C(=O)O)c(=O)n2Cc2ccc(Cl)cc2)cc1Cl", 0.52],
  ["CC(C)Oc1ccc(/N=c2\\[nH]c(=O)n(CC(C)(C)C(=O)O)c(=O)n2Cc2ccc(Cl)cc2)cc1Cl", 0.22],
  ["CC(C)Oc1ccc(/N=c2\\[nH]c(=O)n(C[C@H](C)C(=O)O)c(=O)n2Cc2ccc(Cl)cc2)cc1", 2.91],
  ["CC(C)Oc1ccc(/N=c2\\[nH]c(=O)n(C[C@H](C)C(=O)O)c(=O)n2Cc2ccc(Cl)cc2)cc1F", 1.31],
  ["CC(C)Oc1ccc(Nc2nc(=O)n(CCO)c(=O)n2Cc2ccc(Cl)cc2)cc1Cl", 0.2]
]}

From: ChEMBL document CHEMBL5030545
